- System: TGW (Neuroblastoma)
- PROTOCOL: combination Emax (second highest fraction inhibited in the dose matrix, 72 h); higher = more inhibition; extreme values may be limits of the assay
RESULT TYPE: combination Emax
The answer should be written as a number, with no unit following it.

{"MOLECULE": "N#Cc1cnc(Nc2cc(NC[C@H]3CNCCO3)c(C(F)(F)F)cn2)cn1 [SRA737] + C=CCn1c(=O)c2cnc(Nc3ccc(N4CCN(C)CC4)cc3)nc2n1-c1cccc(C(C)(C)O)n1 [AZD1775] (first compound max 10 µM, partner max 1 µM)", "RESULT TYPE": "combination Emax", "ASSAY VALUE": 0.922}
{"MOLECULE": "Cc1c2c(nn1C)CSCc1cc(n(C)n1)CSc1cc(c3ccccc3c1)OCCCc1c(C(=O)O)n(C)c3c-2c(Cl)ccc13 [AZD5991] + CS(=O)(=O)CCNCc1ccc(-c2ccc3ncnc(Nc4ccc(OCc5cccc(F)c5)c(Cl)c4)c3c2)o1 [Lapatinib] (first compound max 1 µM, 7x7, partner max 10 µM)", "RESULT TYPE": "combination Emax", "ASSAY VALUE": 0.312}
{"MOLECULE": "COc1nnc2ccc(N3CCC(c4ccc(OCCN5CCN(C)C(=O)[C@H]5C)cc4)CC3)nn12 [AZD5153] + CC1(C)CCC(CN2CCN(c3ccc(C(=O)NS(=O)(=O)c4ccc(NCC5CCOCC5)c([N+](=O)[O-])c4)c(Oc4cnc5[nH]ccc5c4)c3)CC2)=C(c2ccc(Cl)cc2)C1 [Venetoclax] (first compound max 1 µM, 7x7, partner max 1 µM)", "RESULT TYPE": "combination Emax", "ASSAY VALUE": 0.798}
{"MOLECULE": "N#Cc1cnc(Nc2cc(NC[C@H]3CNCCO3)c(C(F)(F)F)cn2)cn1 [SRA737] + Nc1ccn([C@@H]2O[C@H](CO)[C@@H](O)C2(F)F)c(=O)n1 [Gemcitabine] (first compound max 10 µM, 7x7, partner max 0.3 µM)", "RESULT TYPE": "combination Emax", "ASSAY VALUE": 0.861}
{"MOLECULE": "Cc1c2c(nn1C)CSCc1cc(n(C)n1)CSc1cc(c3ccccc3c1)OCCCc1c(C(=O)O)n(C)c3c-2c(Cl)ccc13 [AZD5991] + Nc1ccn([C@@H]2O[C@H](CO)[C@@H](O)C2(F)F)c(=O)n1 [Gemcitabine] (first compound max 1 µM, 7x7, partner max 0.3 µM)", "RESULT TYPE": "combination Emax", "ASSAY VALUE": 0.621}
{"MOLECULE": "NC1(C(=O)N[C@@H](CCO)c2ccc(Cl)cc2)CCN(c2ncnc3[nH]ccc23)CC1 [Capivasertib] + CC(=O)c1c(C)c2cnc(Nc3ccc(N4CCNCC4)cn3)nc2n(C2CCCC2)c1=O [Palbociclib] (first compound max 10 µM, 7x7, partner max 10 µM)", "RESULT TYPE": "combination Emax", "ASSAY VALUE": 0.378}

Next:
Bench note: what combination Emax did NC1(C(=O)N[C@@H](CCO)c2ccc(Cl)cc2)CCN(c2ncnc3[nH]ccc23)CC1 [Capivasertib] + CC(C)n1c(=O)n(C)c2cnc3cc(F)c(-c4ccc(OCCCN5CCCCC5)nc4)cc3c21 [AZD1390] (first compound max 10 µM, 7x7, partner max 0.3 µM) show?
0.172
